molecular target: Neuronal acetylcholine receptor subunit alpha-9 (Homo sapiens); experiment: Antagonist activity at human alpha9 nAChR expressed in xenopus laevis oocytes assessed as inhibition of acetylcholine-induced response by two electrode voltage-clamp assay
Sequence (Q9UGM1 whole entry): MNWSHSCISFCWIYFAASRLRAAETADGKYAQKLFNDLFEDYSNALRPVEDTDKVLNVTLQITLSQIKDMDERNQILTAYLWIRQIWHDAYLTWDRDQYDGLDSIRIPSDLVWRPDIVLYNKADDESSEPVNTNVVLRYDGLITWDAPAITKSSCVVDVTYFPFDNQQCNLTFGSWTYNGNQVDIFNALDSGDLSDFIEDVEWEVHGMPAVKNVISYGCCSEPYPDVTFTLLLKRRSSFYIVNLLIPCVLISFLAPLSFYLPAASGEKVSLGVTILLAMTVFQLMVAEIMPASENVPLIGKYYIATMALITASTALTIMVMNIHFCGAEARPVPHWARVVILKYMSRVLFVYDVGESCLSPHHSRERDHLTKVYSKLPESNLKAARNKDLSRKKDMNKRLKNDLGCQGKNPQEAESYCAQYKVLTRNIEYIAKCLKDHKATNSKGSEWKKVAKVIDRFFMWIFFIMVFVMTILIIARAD
REPORTED METRIC: IC50
Please state the value followed by its unit.

C[S+]1CCCN(C(=O)c2ccc(-c3cccc(C(F)(F)F)c3)o2)CC1 (configuration not stated) | 7.9 µM

Problem: Look at this compound and give its reported IC50. CC[S+]1CCCN(C(=O)c2ccc(-c3cccc(C(F)(F)F)c3)o2)CC1 (configuration not stated)
Result: 4.03 µM
